Assignment: determine reported solubility for the given compounds.
experiment: Measurement of kinetic solubility; conditions: 100 mM sodium phosphate buffer, pH 6.5, aqueous buffer, kinetic from dmso stock

In: Fill in the blank: the reported solubility of CCNCc1cncc(-c2ccc3[nH]nc(-c4cnco4)c3c2)c1C is ____.
Out: > 120 µg/mL

In: Fill in the blank: the reported solubility of CCNCc1cncc(-c2ccc3[nH]nc(-c4ncc(C(=O)NCCN(C)C)[nH]4)c3c2)c1C is ____.
Out: > 120 µg/mL

In: Fill in the blank: the reported solubility of CCNCc1cncc(-c2ccc3[nH]nc(-c4ncc(C(=O)N5CCN(c6ccc(F)cc6F)CC5)[nH]4)c3c2)c1C is ____.
Out: 20 to 120 µg/mL

In: Fill in the blank: the reported solubility of CCNCc1cncc(-c2ccc3[nH]nc(-c4ncc(C(=O)N5CC=C(c6ccccc6)CC5)[nH]4)c3c2)c1C is ____.
Out: 20 to 120 µg/mL

In: Fill in the blank: the reported solubility of Cc1c(CNC(C)C)cncc1-c1ccc2[nH]nc(-c3ncc[nH]3)c2c1 is ____.
Out: > 120 µg/mL

In: Fill in the blank: the reported solubility of CCNCc1cncc(-c2ccc3[nH]nc(-c4ncc(C(=O)N5CCC6CCCCC6C5)[nH]4)c3c2)c1C (stereo not shown) is ____.
Out: 20 to 120 µg/mL

In: Fill in the blank: the reported solubility of CCNCc1cncc(-c2ccc3[nH]nc(-c4nc(-c5ccccc5)c(C)[nH]4)c3c2)c1C is ____.
Out: 20 to 120 µg/mL

In: Fill in the blank: the reported solubility of CCNCc1cncc(-c2ccc3[nH]nc(-c4nc(-c5ccccc5)c(C(=O)N(C)C5CCCCC5)[nH]4)c3c2)c1C is ____.
Out: 20 to 120 µg/mL

In: Fill in the blank: the reported solubility of CCNCc1cncc(-c2ccc3[nH]nc(-c4nc(C(=O)N5CCCCC5)c[nH]4)c3c2)c1C is ____.
Out: > 120 µg/mL

In: Fill in the blank: the reported solubility of CCNCc1cncc(-c2ccc3[nH]nc(-c4nc(C(=O)NCC)c[nH]4)c3c2)c1C is ____.
Out: > 120 µg/mL

In: Fill in the blank: the reported solubility of CCNCc1cncc(-c2ccc3[nH]nc(-c4nc(-c5ccccc5)c(C(=O)N5CCCCC5)[nH]4)c3c2)c1C is ____.
Out: 20 to 120 µg/mL

In: Fill in the blank: the reported solubility of CCNCc1cncc(-c2ccc3[nH]nc(C(N)=O)c3c2)c1C is ____.
Out: > 120 µg/mL

In: Fill in the blank: the reported solubility of CCNCc1cncc(-c2ccc3[nH]nc(-c4nc(CC(C)C)c(C)[nH]4)c3c2)c1C is ____.
Out: 20 to 120 µg/mL

In: Fill in the blank: the reported solubility of CCNCc1cncc(-c2ccc3[nH]nc(-c4ncc(C(=O)N5CCOCC5)[nH]4)c3c2)c1C is ____.
Out: > 120 µg/mL

In: Fill in the blank: the reported solubility of CCNCc1cncc(-c2ccc3[nH]nc(-c4nc(-c5ccccc5)c(C(=O)NCC)[nH]4)c3c2)c1C is ____.
Out: 20 to 120 µg/mL

In: Fill in the blank: the reported solubility of CCNCc1cncc(-c2ccc3[nH]nc(-c4nc(C(=O)N5CCCCCC5)c[nH]4)c3c2)c1C is ____.
Out: > 120 µg/mL

In: Fill in the blank: the reported solubility of CCNCc1cncc(-c2ccc3[nH]nc(-c4ncc(C(=O)N5CCCC5)[nH]4)c3c2)c1C is ____.
Out: 20 to 120 µg/mL

In: Fill in the blank: the reported solubility of CCNCc1cncc(-c2ccc3[nH]nc(-c4nc(-c5ccccc5)c(C(=O)NCc5ccccc5)[nH]4)c3c2)c1C is ____.
Out: 20 to 120 µg/mL

In: Fill in the blank: the reported solubility of CCNCc1cncc(-c2ccc3[nH]nc(-c4ncc[nH]4)c3c2)c1CC is ____.
Out: > 120 µg/mL

In: Fill in the blank: the reported solubility of CCNCc1cncc(-c2ccc3[nH]nc(-c4cnc[nH]4)c3c2)c1C is ____.
Out: > 120 µg/mL

In: Fill in the blank: the reported solubility of CCNCc1cncc(-c2ccc3[nH]nc(-c4cnc(-c5ccncc5)[nH]4)c3c2)c1C is ____.
Out: > 120 µg/mL

In: Fill in the blank: the reported solubility of COCc1cncc(-c2ccc3[nH]nc(-c4nc5c([nH]4)CCCC5)c3c2)c1C is ____.
Out: > 120 µg/mL

In: Fill in the blank: the reported solubility of CCNCc1cncc(-c2ccc3[nH]nc(-c4nc(C(=O)NC5CCCCC5)c[nH]4)c3c2)c1C is ____.
Out: 20 to 120 µg/mL

In: Fill in the blank: the reported solubility of CCNCc1cncc(-c2ccc3[nH]nc(-c4nc(-c5cccc(OC)c5)c[nH]4)c3c2)c1C is ____.
Out: 20 to 120 µg/mL

In: Fill in the blank: the reported solubility of CCNCc1cncc(-c2ccc3[nH]nc(-c4nc(-c5ccc(F)cc5)c[nH]4)c3c2)c1C is ____.
Out: 20 to 120 µg/mL

In: Fill in the blank: the reported solubility of CCNCc1cncc(-c2ccc3[nH]nc(-c4ncc[nH]4)c3c2)c1C is ____.
Out: > 120 µg/mL

In: Fill in the blank: the reported solubility of CCNCc1cncc(-c2ccc3[nH]nc(-c4nc(-c5ccccc5)c(C(=O)N5CCCC5)[nH]4)c3c2)c1C is ____.
Out: 20 to 120 µg/mL

In: Fill in the blank: the reported solubility of CCNCc1cncc(-c2ccc3[nH]nc(-c4nc(C(=O)O)c[nH]4)c3c2)c1C is ____.
Out: > 120 µg/mL

In: Fill in the blank: the reported solubility of CCNCc1cncc(-c2ccc3[nH]nc(-c4nc(CC)c(CC)[nH]4)c3c2)c1C is ____.
Out: > 120 µg/mL

In: Fill in the blank: the reported solubility of CCNCc1cncc(-c2ccc3[nH]nc(-c4ncc(C(=O)NC5C6CC7CC(C6)CC5C7)[nH]4)c3c2)c1C (stereo not shown) is ____.
Out: < 20 µg/mL

In: Fill in the blank: the reported solubility of CCNCc1cncc(-c2ccc3[nH]nc(-c4nc(-c5cc(Cl)cc(Cl)c5)c(C)[nH]4)c3c2)c1C is ____.
Out: < 20 µg/mL
